Hey, just so you know, these numbers are from patent US4632940A.

System: cutaneous reflex after stimulation (guinea-pig back)
TEST METHOD NOTES: Local anesthetic activity, intradermal infiltration in the back of guinea-pig (Bulbring and Wayda)
Type: in vivo
MEASUREMENT CONTEXT: drug concentration inhibiting 50% of the occurence of the cutaneous reflex, 95% c.l. in parentheses
QUANTITY MEASURED: LOCAL ANESTHETIC ACTIVITY ED50 (c.l. 95%)

query: Consider the compound CC(COc1ccccc1)N[C@@H](CO)[C@@H](O)c1ccc(S(C)(=O)=O)cc1 (relative stereo) [Z. 1402] and give its measured LOCAL ANESTHETIC ACTIVITY ED50 (c.l. 95%).
result: 0.075 (0.05-0.1) mM

query: Consider the compound CCN(CC)CCOC(=O)c1ccc(N)cc1 [Procaine, reference compound] and give its measured LOCAL ANESTHETIC ACTIVITY ED50 (c.l. 95%).
result: 2.3 (1.7-3.1) mM

query: Consider the compound CS(=O)(=O)c1ccc([C@@H](O)[C@@H](CO)NCCC(c2ccccc2)c2ccccc2)cc1 and give its measured LOCAL ANESTHETIC ACTIVITY ED50 (c.l. 95%).
result: 0.73 (0.57-0.94) mM

query: Consider the compound CC(COc1ccccc1)N[C@@H](CO)[C@@H](O)c1ccc(S(C)(=O)=O)cc1 (relative stereo) [Z. 1403] and give its measured LOCAL ANESTHETIC ACTIVITY ED50 (c.l. 95%).
result: 0.049 mM

query: Consider the compound CS(=O)(=O)c1ccc([C@H](O)[C@H](CO)NCCC(c2ccccc2)c2ccccc2)cc1 and give its measured LOCAL ANESTHETIC ACTIVITY ED50 (c.l. 95%).
result: 0.36 (0.21-0.60) mM

----------
TEST METHOD NOTES: in vivo
Assay type: in vivo
MEASUREMENT CONTEXT: in vivo, iv; ratio of LD50 (mouse, i.v.) to ED50 (guinea pig local infiltration); read-out: Therapeutic Index LD50/ED50
QUANTITY MEASURED: selectivity ratio
Format: numeric value only, no unit, no commentary.

query: Consider the compound CS(=O)(=O)c1ccc([C@H](O)[C@H](CO)NCCC(c2ccccc2)c2ccccc2)cc1 [Z. 1396] and give its measured selectivity ratio.
result: 0.5

----------
TEST METHOD NOTES: in vivo
Type: in vivo
MEASUREMENT CONTEXT: mouse, in vivo, iv; administered as hydrochloride; observed for 24 hrs
QUANTITY MEASURED: LD50 at 24 h (µmol/kg)
Use µmol/kg as the unit, but write only the number.

query: Consider the molecule CS(=O)(=O)c1ccc([C@H](O)[C@H](CO)NCCC(c2ccccc2)c2ccccc2)cc1 and give its measured LD50 at 24 h.
result: 160
